Items are presented alongside their recorded INHIBITION.
tested on: Plasmodium berghei; assay: Screen against P. berghei liver stage (PbLuc), transformed with Luciferase, at 2uM; format: functional, HepG2; conditions: tested at 2 uM
In all, about 68,000 compounds went through this assay and about 2,700 (4%) showed an effect of 50% or more. Shown is part of a subset that was picked to be rich in strong results.
QUANTITY_MEASURED: INHIBITION (%)

1) CN(C)c1cc(CNc2cncc(-n3cccn3)n2)ccn1 | -15.92
2) CC(C)C1=NOC(c2nc(Cc3ccccc3)no2)C1 (stereo not given) | 50.46
3) Cc1cc(C)c(CNC(=O)NCCOc2ccc3c(c2)CCC3)c(=O)[nH]1 | 14.11
4) Cc1ccccc1-c1noc(C2CC(C(C)C)=NO2)n1 (stereo not given) | -10.37
5) COc1ccccc1C(C)CC(=O)N1CCCS1(=O)=O (stereo not given) | -29.82
6) Cc1cccc(S(=O)(=O)N2C[C@@H]3C[C@@H](c4nc(C)no4)O[C@@H]3C2)c1 | 0.8
7) CS(=O)(=O)CCOCCNc1ccc2ccc(F)cc2n1 | 35.63
8) COc1ccc(-c2noc(C3CC(C(C)C)=NO3)n2)cc1 (stereo not given) | 7.37
9) Cc1noc(C)c1CC(=O)N1CCC(c2ccn3nccc3n2)CC1 | 52.57
10) Cc1ccc(S(=O)(=O)NCCOc2ccc3nnc(C)n3n2)s1 | 17.47
11) CCCc1nc(CNC2(c3nccs3)CCCC2)cs1 | 58.68
12) Cc1ccc(C(O)CNC(=O)NCc2c(C)cc(C)[nH]c2=O)cc1 (stereo not given) | -11.2
13) COc1ccccc1C(C)CC(=O)N1CCN(S(N)(=O)=O)CC1 (stereo not given) | 50.46
14) Cc1cc(C)c(CNC(=O)c2ccc3c(c2)CCC3)c(=O)[nH]1 | 58.52
15) Cc1nc(N)cc(C2CCN2CCC(N)=O)n1 (stereo not given) | 11.32
16) O=C(N[C@H]1CN(Cc2ccsc2)[C@@H]2CCCO[C@H]12)C1CC1 | -1.33
17) c1cnc(-c2nn3c(CN4CCOCC4)nnc3s2)cn1 | 26.03
18) Cc1cc(C)c(CNC(=O)NCc2ccc3c(c2)CCC3)c(=O)[nH]1 | -7.02
19) Cc1cccc(N(C)Cc2cc(=O)n3oc(C)cc3n2)c1 | 4.91
20) c1cnn(C[C@@H]2C[C@@H]3CN(CC4CC4)CC[C@@H]3N2c2nccs2)c1 | -11.68

* * *

system: Plasmodium berghei; assay: Screen against P. berghei liver stage (PbLuc), transformed with Luciferase, at 2uM; type: functional, HepG2; settings: tested at 2 uM
Among all 68,000 compounds or so, about 2,700 (4%) showed an effect of 50% or more. Many of the other results were omitted from the sample, so strong results are more common in it than they were.
Items are presented alongside their recorded INHIBITION.
QUANTITY_MEASURED: INHIBITION (%)

1) CN(C)C(=O)CS(=O)(=O)Cc1ccn(-c2cccc(F)c2)n1 | -19.29
2) CC(C)CC(CCO)CNC(=O)N1CC(C)(C)C1(C)C (stereo not drawn) | -6.69
3) CN(C)c1ccc(NC(=O)C2CN(Cc3ccccc3)CCO2)cn1 (stereo not drawn) | 12.94

The measured values listed here are drawn from ChEMBL document CHEMBL4513216.
